Tested on: T-47D cells
PROTOCOL_NOTES: Effect on oestrogen-induced proliferation of T-47D cells
Assay type: cell-based, human
REPORTED_CONDITIONS: Homo sapiens, T47D, 168 h; 10^-6 M; 100% = E2 10^-9 M, 7 days; read-out: growth of T-47D cells
Overview of recorded activity at 1 µM for various molecules

>>> observed_measurement("CC1(C)CCC(C)(C)c2cc(/C=C(\\c3ccc(C(=O)O)cc3)C(F)(F)F)ccc21 [CB36493]")
"68 to 78%"
>>> observed_measurement("C/C(=C/c1ccc2c(c1)C(C)(C)CCC2(C)C)c1ccc(C(=O)O)cn1 [CB38416]")
"50 to 60%"

Consider the additional molecule presented here.
// recorded activity at 1 µM for C/C(=C/c1ccc2c(c1)C(C)(C)CCC2(C)C)c1ccc(C(=O)O)s1 [CB30382] : 73 to 94%
